B1: POU domain, class 4, transcription factor 1, residues 266 to 347; numbered along this chain, Q01851 (parent)
chain: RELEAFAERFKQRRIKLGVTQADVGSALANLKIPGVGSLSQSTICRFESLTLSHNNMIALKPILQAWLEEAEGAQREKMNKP

Variants of: B1
procedure_summary: abundance fitness (aPCA) (normalised: wild type 0, dead -1); higher = more abundant; growth selection in yeast, the domain comes from the species named
experimental_context: Homo sapiens
observation_type: abundance fitness
Answers are plain numbers.

- sequence_record: "RELEAFAERFKQRRIKLGVTQADVGSALANLKIPGVGSLSQSTICRFERLTLSHNNMIALKPILQAWLEEAEGAQREKMNKP [S49R]"
  abundance fitness: -0.073
- sequence_record: "RELEAFAERFKQRRIKLGVTQADVGSALANLKCPGVGSLSQSTICRFESLTLSHNNMIALKPILQAWLEEAEGAQREKMNKP [I33C]"
  abundance fitness: -0.005
- sequence_record: "RELEAFAERFKQRRIKLGVTQADVGSALANLKIPGVGSLSQSTICRFESLTLSHNNMIALKPILQAWLEEAEGTQREKMNKP [A74T]"
  abundance fitness: -0.013
- sequence_record: "RELEAFAERFKQRRIKLGVTQADVGSALANLKIPGVGSLSQSTICRFESLTLSHNNMIILKPILQAWLEEAEGAQREKMNKP [A59I]"
  abundance fitness: -0.021
- sequence_record: "RELEAFAERFKQRRIKLGVTQADVVSALANLKIPGVGSLSQSTICRFESLTLSHNNMIALKPILQAWLEEAEGAQREKMNKP [G25V]"
  abundance fitness: 0.068

Quick one: give me abundance fitness for each item below, same order please.
1. RELEAFAERFKQRRIKLGVTPADVGSALANLKIPGVGSLSQSTICRFESLTLSHNNMIALKPILQAWLEEAEGAQREKMNKP [Q21P]
2. RELEAFAERFKQRRIKLGVTQADVGTALANLKIPGVGSLSQSTICRFESLTLSHNNMIALKPILQAWLEEAEGAQREKMNKP [S26T]

[-0.045, -0.095]
